# PROTOCOL SUMMARY: Inhibition of mitochondrial pyruvate carrier in C57BL/6J mouse cardiac mitochondria assessed as inhibition of pyruvate/malate-induced mitochondrial respiration by steady-state ADP coupled assay
# Design: species or system Heart
PROPERTY NAME: EC50 (nM)
Give the number; nM is assumed, so skip it.

1. N#C/C(=C\c1c[nH]nc1-c1ccccc1)C(=O)O :: 796

Any idea what its EC50 is? The compound is "CCc1ccc(-c2n[nH]cc2/C=C(\C#N)C(=O)O)cc1"
614

###

Quick reference: log10 of EC50 of the listed items.
# PROTOCOL SUMMARY: Inhibition of mitochondrial pyruvate carrier in C57BL/6J mouse cardiac mitochondria assessed as inhibition of pyruvate/malate-induced mitochondrial respiration by steady-state ADP coupled assay
# Parameters: species or system Heart
A value of 2 here means EC50 of 100 in µM, since values are log10.

Example entries begin here.
1. N#C/C(=C\c1c[nH]nc1-c1ccc(Br)cc1)C(=O)O :: -0.46
2. COc1ccccc1-c1n[nH]cc1/C=C(\C#N)C(=O)O :: -0.25
3. N#C/C(=C\c1cn(-c2ccccc2)nc1-c1ccc2ccccc2c1)C(=O)O :: -0.10

Attention now shifts to the item below.
Sample "COc1cccc(-c2n[nH]cc2/C=C(\C#N)C(=O)O)c1" — what was its log10 of EC50?
-0.03

###

Reported pEC50 by item:
# PROTOCOL SUMMARY: Inhibition of mitochondrial pyruvate carrier in C57BL/6J mouse cardiac mitochondria assessed as inhibition of pyruvate/malate-induced mitochondrial respiration by steady-state ADP coupled assay
# Set-up: species or system Heart
// pEC50 is dimensionless: -log10 of concentration (M)

# annotated cases, reported pEC50 shown
1. N#C/C(=C\c1c[nH]nc1-c1cccs1)C(=O)O :: 6.43
2. CS(=O)(=O)c1ccc(-c2n[nH]cc2/C=C(\C#N)C(=O)O)cc1 :: 4.74
3. N#C/C(=C\c1c[nH]nc1-c1ccc(-c2ccccc2)cc1)C(=O)O :: 6.04

Next, consider the following compound.
GET /values?readout=pEC50&item= "N#C/C(=C\c1c[nH]nc1-c1cccc(Cl)c1)C(=O)O"
6.19
